Source: patent US20250368745A1

Entries and their pKd
Target: T1, human IL-18BP (human, UniProt O95998 31-194)
T1 construct: UniProt printed as 095998; also called hIL-18BP
T1 sequence: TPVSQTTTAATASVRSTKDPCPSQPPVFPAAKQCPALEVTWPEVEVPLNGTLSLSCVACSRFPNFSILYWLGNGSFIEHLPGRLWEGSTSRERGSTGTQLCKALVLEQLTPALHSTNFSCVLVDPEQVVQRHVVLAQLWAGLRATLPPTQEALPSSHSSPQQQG
Test: BLI, apparent KD
pKd: −log10 of the molar value.

{"columns": ["binder", "pKd"],
 "data": [
  ["SA302a HC-H35V (antibody, V domains shown, IgG1 kappa) VH: QVQLQESGPGLVKPSQTLSLTCTVSGYSITSDYNAVWIRQPPGKGLEWIGYIHYSGSTNYNPSLKSRVTISRDTSKNQFSLKLSSVTAADTAVYYCARNYGSIYVNYFDYWGQGTLVTVSS VL: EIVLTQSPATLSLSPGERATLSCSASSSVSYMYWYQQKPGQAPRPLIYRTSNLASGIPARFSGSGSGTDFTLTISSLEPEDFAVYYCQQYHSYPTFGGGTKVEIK", 8.62],
  ["SA302a HC-T30S (antibody, V domains shown) VH: QVQLQESGPGLVKPSQTLSLTCTVSGYSISSDYNAHWIRQPPGKGLEWIGYIHYSGSTNYNPSLKSRVTISRDTSKNQFSLKLSSVTAADTAVYYCARNYGSIYVNYFDYWGQGTLVTVSS VL: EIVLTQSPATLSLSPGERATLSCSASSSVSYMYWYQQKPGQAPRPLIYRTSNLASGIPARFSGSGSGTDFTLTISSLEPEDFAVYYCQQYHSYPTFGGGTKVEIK", 9.18],
  ["SA302a HC-N33bY (antibody, V domains shown) VH: QVQLQESGPGLVKPSQTLSLTCTVSGYSITSDYYAHWIRQPPGKGLEWIGYIHYSGSTNYNPSLKSRVTISRDTSKNQFSLKLSSVTAADTAVYYCARNYGSIYVNYFDYWGQGTLVTVSS VL: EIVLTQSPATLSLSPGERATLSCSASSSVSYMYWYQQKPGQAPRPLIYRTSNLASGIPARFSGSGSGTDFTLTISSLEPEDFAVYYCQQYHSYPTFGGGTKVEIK", 8.21]
]}
